system: Clone20 osteoblast Shn3 3'UTR firefly luciferase, 24 h; assay: Shn3 3'UTR reporter inhibitors, dose response, cell-based, Clone20 osteoblasts, luminescence, dry powder, set 2 (AID 743417)
Records with an inconclusive call do not appear.
So I've got a bunch of compounds here, and I need their AC50 values.

Record AC50 for all entries; do not skip any.
1. C=C(CN(C)C)C(=O)c1ccc(C)cc1C
2. CCOC(=O)C1CCCN(S(=O)(=O)c2ccc(S(=O)(=O)N3CCCC3)cc2)C1 (configuration not stated)
3. CCOC(=O)N1CCN(C(=O)c2ccc(Cn3c(=S)[nH]c4ccc(Br)cc4c3=O)cc2)CC1
4. COc1ccc(-c2cc(N)n(S(=O)(=O)c3c(F)c(F)c(F)c(F)c3F)n2)cc1OC

Reply |
1: 770 nM; 2: 821 nM; 3: 1250 nM; 4: 896 nM

Hi! Can you tell me AC50 for each of these compounds?
1. Cc1[nH]nc2ccc(-c3cncc(OC[C@@H](N)Cc4c[nH]c5ccccc45)c3)cc12
2. Cc1nc2ccccc2n1Cc1ccc(Cl)cc1
3. O=C(O)c1cccc(COc2ccc(CO)cc2Cl)c1
4. CC(C)(CNC(=O)c1ccc(Cl)c(S(=O)(=O)N2CCc3ccccc3C2)c1)N1CCOCC1
5. C=CCNc1nc(N2CCCCC2)c(C#N)c2c1CN(Cc1ccccc1)CC2

Reply |
1: 1770 nM; 2: 1460 nM; 3: 1040 nM; 4: 10500 nM; 5: 16800 nM

For each listed entry, give its AC50.
1. O=C(NCc1ccccc1C(F)(F)F)c1cccc2c1C(=O)c1ccc(N3CCC(N4CCCCC4)CC3)cc1S2(=O)=O
2. CC(C)Cn1c(N)c(C(=O)CSc2ccc3c(c2)OCCO3)c(=O)n(C)c1=O
3. Cc1ccc(S(=O)(=O)NCc2ccncc2)cc1C

Reply |
1: 21200 nM; 2: 674 nM; 3: 585 nM

Field: AC50. Fill in for each record below.
1. COc1cc(NS(C)(=O)=O)ccc1Nc1c2ccccc2nc2ccccc12
2. Fc1ccc2[nH]c3c(N4CCN(c5ccccc5)CC4)ncnc3c2c1

Reply |
1: 1320 nM; 2: 3780 nM

Attribution: PubChem BioAssay AID743417
